Hi there, I'd appreciate the recorded pIC50 for every entry that follows.
system: γ-secretase (Homo sapiens, UniProt P49768)
Construct: uses a HEK293 membrane fraction as a source of γ-secretase; endogenous in cells; host or cells: HEK293 (microsomal membrane fraction, solubilised in 0.25% CHAPSO)
test: in vitro γ-secretase assay (HEK293 membrane fraction, recombinant APP substrate, Abeta ELISA)
Format: biochemical
measurement.conditions: γ-secretase inhibition, table head prints none
pIC50 field: float, defined as -log10 of concentration (mol/L).

The measured pIC50 associated with COC(=O)c1ccc(CN([C@@H]2CC(C)(C)CCNC2=O)S(=O)(=O)c2ccc(Cl)cc2)c(F)c1 reads 8.00

The measured pIC50 associated with CC1(C)CCNC(=O)C(N(Cc2ccc(C(=O)NC3CC3)cc2)S(=O)(=O)c2ccc(Cl)cc2)C1 (centres unmarked) reads 6.55

The measured pIC50 associated with CC1(C)CCNC(=O)C(N(Cc2ccc(-c3nn[nH]n3)cc2)S(=O)(=O)c2ccc(Cl)cc2)C1 (racemic) reads 7.00

The measured pIC50 associated with COC(=O)c1ccc(CN(C2CC(C)(C)CCNC2=O)S(=O)(=O)c2ccc(Cl)cc2)cc1 (racemic) reads 8.00

The measured pIC50 associated with COc1ccc(CN([C@@H]2CC(C)(C)CCNC2=O)S(=O)(=O)c2ccc(Cl)cc2)c(F)c1 reads 7.40

The measured pIC50 associated with CN(C)NC(=O)c1ccc(CN(C2CC(C(F)(F)F)CCNC2=O)S(=O)(=O)c2ccc(Cl)cc2)cc1 (centres unmarked) reads 6.72

The measured pIC50 associated with COc1ccc(CN(C2CC(C(C)C)CCNC2=O)S(=O)(=O)c2ccc(Cl)cc2)c(F)c1 (centres unmarked) reads 6.85

The measured pIC50 associated with O=C(O)c1ccc(CN(C2CC(C(F)(F)F)CCNC2=O)S(=O)(=O)c2ccc(Cl)cc2)cc1 (centres unmarked) reads 7.52

====

system: γ-secretase (Homo sapiens, UniProt P49768)
Construct: uses a HEK293 membrane fraction as a source of γ-secretase; endogenous in cells; host or cells: HEK293 (microsomal membrane fraction, solubilised in 0.25% CHAPSO)
test: in vitro γ-secretase assay (HEK293 membrane fraction, recombinant APP substrate, Abeta ELISA)
Format: biochemical
measurement.conditions: γ-secretase inhibition, table head prints none
experimental.readout: IC50 (nM)
Give the number; nM is assumed, so skip it.

The measured IC50 associated with CC1(C)CCNC(=O)C(N(Cc2ccc(C(=O)NCCN3CCOCC3)cc2)S(=O)(=O)c2ccc(Cl)cc2)C1 (racemic) reads 150

The measured IC50 associated with CC1(C)CCNC(=O)C(N(Cc2ccc(C(=O)NCC(F)(F)F)cc2)S(=O)(=O)c2ccc(Cl)cc2)C1 (racemic) reads 20

The measured IC50 associated with CCOC(=O)c1ccc(CN([C@@H]2CCCCNC2=O)S(=O)(=O)c2ccc(Cl)cc2)cc1 reads 90

The measured IC50 associated with CC1(C)CCNC(=O)[C@H](N(Cc2ccc(C(=O)NC3CC3)cc2)S(=O)(=O)c2ccc(Cl)cc2)C1 reads 10

The measured IC50 associated with COC(=O)CNC(=O)c1ccc(CN(C2CC(C)(C)CCNC2=O)S(=O)(=O)c2ccc(Cl)cc2)cc1 (racemic) reads 20

The measured IC50 associated with O=C(NC1CC1)c1ccc(CN([C@@H]2CCCCNC2=O)S(=O)(=O)c2ccc(Br)cc2)cc1 reads 290

The measured IC50 associated with CC(=O)Nc1ccc(CN(C2CC(C)(C)CCNC2=O)S(=O)(=O)c2ccc(Cl)cc2)cc1 (racemic) reads 20

====

system: γ-secretase (Homo sapiens)
Construct: uses a HEK293 membrane fraction as a source of γ-secretase; endogenous in cells; host or cells: HEK293 (microsomal membrane fraction, solubilised in 0.25% CHAPSO)
test: in vitro γ-secretase assay (HEK293 membrane fraction, recombinant APP substrate, Abeta ELISA)
Type: biochemical
measurement.conditions: γ-secretase inhibition
Hi there, I'd appreciate the recorded pIC50 for every entry that follows.
pIC50 field: float, defined as -log10 of concentration (mol/L).

Readout pIC50 for CC(C)(Cc1ccc(CN([C@@H]2CCCCNC2=O)S(=O)(=O)c2ccc(Cl)cc2)cc1)C(=O)O [Example 219] , test system γ-secretase (Homo sapiens), was 6.64

Readout pIC50 for COc1ccc(CN([C@@H]2CCCCNC2=O)S(=O)(=O)c2ccc(Cl)cc2)c(F)c1F [Example 211] , test system γ-secretase (Homo sapiens), was 7.30

Readout pIC50 for CC(C)(CC(=O)O)c1ccc(CN([C@@H]2CCCCNC2=O)S(=O)(=O)c2ccc(Cl)cc2)cc1 [Example 218] , test system γ-secretase (Homo sapiens), was 6.68

Readout pIC50 for O=C(O)CCc1ccc(CN([C@@H]2CCCCNC2=O)S(=O)(=O)c2ccc(Cl)cc2)cc1 [Example 201] , test system γ-secretase (Homo sapiens), was 7.70

Readout pIC50 for COc1ccc(CN(C2CC(C(F)(F)F)CCNC2=O)S(=O)(=O)c2ccc(Cl)cc2)c(F)c1 (centres unmarked) [Example 198] , test system γ-secretase (Homo sapiens), was 6.54

Readout pIC50 for O=C(O)c1ccc(CN(C2CC(C(F)(F)F)CCNC2=O)S(=O)(=O)c2ccc(Cl)cc2)c(F)c1 (centres unmarked) [Example 199] , test system γ-secretase (Homo sapiens), was 7.70

Readout pIC50 for O=C1NCCCC[C@H]1N(Cc1ccc(-c2ccno2)cc1)S(=O)(=O)c1ccc(Cl)cc1 [Example 208] , test system γ-secretase (Homo sapiens), was 6.66

Readout pIC50 for COC(=O)c1ccc(CN(C2CCCCNC2=O)S(=O)(=O)c2ccc(Cl)cc2)c(F)c1 (racemic) [Example 203] , test system γ-secretase (Homo sapiens), was 6.72

====

system: γ-secretase (Homo sapiens, UniProt P49768)
Construct: uses a HEK293 membrane fraction as a source of γ-secretase; endogenous in cells; host or cells: HEK293 (microsomal membrane fraction, solubilised in 0.25% CHAPSO)
test: in vitro γ-secretase assay (HEK293 membrane fraction, recombinant APP substrate, Abeta ELISA)
Type: biochemical
measurement.conditions: γ-secretase inhibition, table head prints none
experimental.readout: pIC50
pIC50 field: float, defined as -log10 of concentration (mol/L).

Readout pIC50 for CC1(C)CCNC(=O)C(N(Cc2ccc(C(=O)NCc3ccccc3)cc2)S(=O)(=O)c2ccc(Cl)cc2)C1 (racemic) , test system γ-secretase (Homo sapiens, UniProt P49768), was 7.70

Readout pIC50 for CC1(C)CCNC(=O)C(N(Cc2ccc(C(=O)NC3CCCC3)cc2)S(=O)(=O)c2ccc(Cl)cc2)C1 (racemic) , test system γ-secretase (Homo sapiens, UniProt P49768), was 7.30

Readout pIC50 for COC(=O)c1ccc(CN(C2CCCCNC2=O)S(=O)(=O)c2ccc(Cl)cc2)cc1 (racemic) , test system γ-secretase (Homo sapiens, UniProt P49768), was 6.89

Readout pIC50 for Cc1nnc(-c2ccc(CN(C3CC(C(C)C)CCNC3=O)S(=O)(=O)c3ccc(Cl)cc3)cc2)o1 (stereo not drawn) , test system γ-secretase (Homo sapiens, UniProt P49768), was 6.85

Readout pIC50 for CC1(C)CCNC(=O)[C@H](N(Cc2ccc(CO)cc2F)S(=O)(=O)c2ccc(Cl)cc2)C1 , test system γ-secretase (Homo sapiens, UniProt P49768), was 7.70

Readout pIC50 for COc1ccc(CN([C@@H]2CCCCNC2=O)S(=O)(=O)c2ccc(Cl)cc2)c(F)c1 , test system γ-secretase (Homo sapiens, UniProt P49768), was 6.92

Readout pIC50 for CNC(=O)c1ccc(CN(C2CC(C)(C)CCNC2=O)S(=O)(=O)c2ccc(Cl)cc2)cc1 (racemic) , test system γ-secretase (Homo sapiens, UniProt P49768), was 8.00

Readout pIC50 for CN(C)NC(=O)c1ccc(CN([C@@H]2CC(C)(C)CCNC2=O)S(=O)(=O)c2ccc(Cl)cc2)c(F)c1 , test system γ-secretase (Homo sapiens, UniProt P49768), was 7.70

Readout pIC50 for O=C1NCCCCC1N(Cc1ccc(C(F)F)cc1)S(=O)(=O)c1ccc(Cl)cc1 (racemic) , test system γ-secretase (Homo sapiens, UniProt P49768), was 6.64

Readout pIC50 for CC1(C)CCNC(=O)C(N(Cc2ccc(C(N)=O)cc2)S(=O)(=O)c2ccc(Cl)cc2)C1 (racemic) , test system γ-secretase (Homo sapiens, UniProt P49768), was 7.70

Readout pIC50 for CC1(C)CCNC(=O)C(N(Cc2ccc(C(=O)NCCO)cc2)S(=O)(=O)c2ccc(Cl)cc2)C1 (racemic) , test system γ-secretase (Homo sapiens, UniProt P49768), was 7.40

Readout pIC50 for CC1(C)CCNC(=O)[C@H](N(Cc2ccc(C(=O)O)cc2F)S(=O)(=O)c2ccc(Cl)cc2)C1 , test system γ-secretase (Homo sapiens, UniProt P49768), was 7.52

Readout pIC50 for COC(=O)c1ccc(CN([C@@H]2CCCCNC2=O)S(=O)(=O)c2ccc(Cl)cc2)c(F)c1 , test system γ-secretase (Homo sapiens, UniProt P49768), was 6.85

Readout pIC50 for O=C(NC1CC1)c1ccc(CN(C2CC(C(F)(F)F)CCNC2=O)S(=O)(=O)c2ccc(Cl)cc2)cc1 (stereo not drawn) , test system γ-secretase (Homo sapiens, UniProt P49768), was 7.52

Readout pIC50 for NC(=O)c1ccc(CN([C@@H]2CCCCNC2=O)S(=O)(=O)c2ccc(Cl)cc2)cc1 , test system γ-secretase (Homo sapiens, UniProt P49768), was 6.82
